Origin of measurements: PubChem BioAssay (NCATS)

assay: Quantitative High-Throughput drug screen in 47 multiple myeloma cell lines against the NCATS MIPE library collection: UTMC2_PLB cell viability assay (AID 1919868); conditions: CellTiter-Glo ATP luminescence, 48 h; further: nearly all actives have a fitted effect of over 55% in size
Inconclusive results are not listed. Calls of active or inactive are those of the source. The call rests on the fitted dose curve; in most records, active means well fitted cell-killing curve with a large enough effect; inconclusive means small, poorly fitted or top-dose-only effect, or effect the other way; inactive means no such curve, though single readings can be large or run the other way.
Return exactly one item of active, inactive

[[record]]
molecule = "O=C(c1cc(Cc2n[nH]c(=O)c3ccccc23)ccc1F)N1CCN(C(=O)C2CC2)CC1"
assignedclass = "active"

[[record]]
molecule = "CC(C)(C)NCC(O)c1ccc(O)c(CO)c1 (stereo unspecified)"
assignedclass = "inactive"

[[record]]
molecule = "CC[C@H](Nc1ncnc2nc[nH]c12)c1nc2cccc(F)c2c(=O)n1-c1ccccc1"
assignedclass = "active"

[[record]]
molecule = "CS(=O)(=O)c1cccc(CNc2nc(Nc3ccc4c(c3)CCC(=O)N4)ncc2C(F)(F)F)c1"
assignedclass = "active"

[[record]]
molecule = "COc1ccccc1[C@H](c1cccc2ccccc12)[C@@](C)(C#N)C(=O)N1CCC(c2cccc(C(F)(F)F)c2)CC1"
assignedclass = "active"

[[record]]
molecule = "OC(CN1CCC(Cc2ccc(F)cc2)CC1)c1ccc(Cl)cc1 (stereo unspecified)"
assignedclass = "inactive"

[[record]]
molecule = "Cc1cc([C@@H](C)Nc2ccccc2C(=O)O)c2nc(N3CCOCC3)cc(=O)n2c1"
assignedclass = "active"

[[record]]
molecule = "Cc1cc(Nc2nc(N[C@@H](C)c3ncc(F)cn3)ncc2Cl)n[nH]1"
assignedclass = "active"


Turning to the following molecule.
Q: Which outcome was entered for the molecule Cn1cnc([N+](=O)[O-])c1Sc1ncnc2nc[nH]c12 in this test?
A: active
